Measured values drawn from PubChem BioAssay for this set.

biological target: Torsin-1A (Homo sapiens) (UniProt O14656); assay: small-molecule binders of mutant TOR1A in lysate, primary screen, cell lysate, small-molecule microarray, COS7 lysate, 635/667 nm fluorescence (AID 1150); settings: COS7 hTOR1A mutant lysate, 635 nm fluorescence, higher = more signal;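 further: score pools 667 nm emission and signal to noise measuring lysate protein binding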
Sequence (O14656 whole entry, looked up): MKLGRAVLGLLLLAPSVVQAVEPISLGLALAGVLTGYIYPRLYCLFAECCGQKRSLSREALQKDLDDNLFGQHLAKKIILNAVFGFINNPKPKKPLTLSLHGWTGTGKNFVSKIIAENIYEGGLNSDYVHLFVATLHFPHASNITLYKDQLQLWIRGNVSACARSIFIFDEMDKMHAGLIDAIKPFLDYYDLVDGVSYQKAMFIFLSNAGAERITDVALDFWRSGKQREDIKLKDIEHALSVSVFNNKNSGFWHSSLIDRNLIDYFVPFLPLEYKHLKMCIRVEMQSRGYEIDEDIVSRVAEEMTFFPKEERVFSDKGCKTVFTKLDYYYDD
Each item that follows carries a reported composite z-score.
resultType: composite z-score

1) COc1ccc(C(=O)Nc2cccc(CN3C(=O)[C@@]4(O[C@@H](CC(=O)N(CCO)Cc5ccccc5)[C@H]([Si](C)(C)c5ccc(OC)cc5)[C@H]4C)c4ccccc43)c2)cc1 | 1.16
2) CCCC=C(CCC)[C@@H](NS(=O)(=O)c1cccc2cccnc12)c1ccc(-c2ccccc2)cc1 | 0.371
3) [N-]=[N+]=NCc1ccccc1[C@H]1OC(c2ccc(OCCCO)cc2)=N[C@@]1(Cc1ccccc1)C(=O)NCCN1CCOCC1 | 0.604
4) Nc1cc(Br)ccc1C(=O)O | 0.474
5) CC1CC/C=C\[C@H]2OC34C=CCN(C(C)(C)C)C(=O)[C@H]3N(C(CO)C(C)C)C(=O)[C@@H]4C2C(=O)O1 (some centres not stated) | 0.931
6) C=C(/C(=C/C[C@@H](OC(=O)c1ccncc1)c1cccc(OCCO)c1)c1cnc2ccccc2c1)C(C)C | 0.128
7) COc1ccc([Si](C)(C)[C@@H]2[C@@H](CC(=O)N3Cc4ccccc4C[C@H]3CO)O[C@]3(C(=O)N(c4ccccc4)c4ccccc43)[C@H]2C)cc1 | 0.871
